Examples of molecules with documented residual activity follow.
# target: UniProt Q9NQU5
# Sequence (Q9NQU5 whole entry, looked up): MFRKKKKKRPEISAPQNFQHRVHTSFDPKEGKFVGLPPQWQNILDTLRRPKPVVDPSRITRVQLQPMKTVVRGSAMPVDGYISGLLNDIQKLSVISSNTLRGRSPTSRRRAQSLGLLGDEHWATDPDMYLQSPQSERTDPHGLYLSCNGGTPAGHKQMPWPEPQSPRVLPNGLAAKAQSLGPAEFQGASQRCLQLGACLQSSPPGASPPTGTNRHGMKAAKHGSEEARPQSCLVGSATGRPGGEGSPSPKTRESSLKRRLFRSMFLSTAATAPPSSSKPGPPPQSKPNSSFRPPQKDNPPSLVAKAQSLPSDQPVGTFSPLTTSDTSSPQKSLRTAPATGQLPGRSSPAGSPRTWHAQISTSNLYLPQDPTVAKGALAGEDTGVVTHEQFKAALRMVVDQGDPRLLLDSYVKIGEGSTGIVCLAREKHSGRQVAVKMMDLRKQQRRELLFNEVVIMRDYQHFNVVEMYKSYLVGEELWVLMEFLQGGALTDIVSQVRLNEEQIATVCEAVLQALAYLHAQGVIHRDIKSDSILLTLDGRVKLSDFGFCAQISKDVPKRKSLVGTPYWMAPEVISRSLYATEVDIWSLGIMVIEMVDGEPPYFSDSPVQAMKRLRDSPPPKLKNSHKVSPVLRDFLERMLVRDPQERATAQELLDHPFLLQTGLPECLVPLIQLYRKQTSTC
# assay: radiometric filter-binding kinase assay
# assayConditions: compound 10.0 µM

smilesString	target	residual activity, %
Cc1nc(-c2ccc(OCC(C)C)c(C#N)c2)sc1C(=O)O	UniProt Q9NQU5	107
CCCC(CCC)C(=O)O	UniProt Q9NQU5	95
Cn1nc(Nc2ccc(F)cc2)c2c(N)ncnc21	UniProt Q9NQU5	101
Cc1ccc(-c2ccc3c(ccc4sc5c(c43)NC[C@@H](C)NC5=O)n2)cn1	UniProt Q9NQU5	116
O=C(O)c1cc(N=Nc2ccc(S(=O)(=O)Nc3ccccn3)cc2)ccc1O	UniProt Q9NQU5	99
C[C@H]1CCCC(=O)CCC/C=C/c2cc(O)cc(O)c2C(=O)O1	UniProt Q9NQU5	94
CNc1nc(-c2ccc3c(N)n[nH]c3c2)cc(N2C[C@@H](C(=O)NC3CCCCC3)CC[C@H]2C)n1	UniProt Q9NQU5	96

###

# target: MAPKAPK3 (human)
# assay: radiometric filter-binding kinase assay
# assayConditions: compound 1.0 µM

smilesString	residual activity
O=C(Nc1ccccc1-c1cn2c(CN3CCNCC3)csc2n1)c1cnc2ccccc2n1	90%
O=c1c(O)c(-c2ccc(O)c(O)c2)oc2cc(O)c(O)c(O)c12	92%
CCn1c(-c2nonc2N)nc2cncc(CNC3CCNCC3)c21	101%
COc1ccc(N(C(=O)Nc2c(C)cccc2C)c2cc(Nc3ccc(N4CCN(C)CC4)cc3)ncn2)c(OC)c1	75%
O=C(Nc1nc2cc(C(F)(F)F)cc(NC3CC3)n2n1)c1cccnc1	97%
CN(C)C/C=C/C(=O)Nc1cccc(C(=O)Nc2ccc(Nc3nccc(-c4cccnc4)n3)cc2)c1	101%
c1ccc2c(-c3cnn4cc(-c5ccc(N6CCNCC6)cc5)cnc34)ccnc2c1	79%
O=C(O)c1cc(N=Nc2ccc(S(=O)(=O)Nc3ccccn3)cc2)ccc1O	116%
Cc1nc(-c2ccc(OCC(C)C)c(C#N)c2)sc1C(=O)O	102%
NCC(=O)Nc1ccc(-n2nc(C(F)(F)F)cc2-c2ccc3c(ccc4ccccc43)c2)cc1	103%
COc1ccc(-n2ncc3cnc(Nc4cc(OC)c(OC)c(OCCCN5CCN(C)CC5)c4)nc32)cc1	81%
NC(=O)c1cc(-c2ccnc(NC3CCCCC3)c2)nc(N2CCNCC2)c1	100%
CCCCCc1ccc(/C=C/[C@H](O)[C@@H](CO)NC)cc1	119%
Oc1ccc(/C=C/c2cc(O)cc(O)c2)cc1	121%
NC(=O)c1ccc(-c2ccc(Oc3cncc4sc(-c5nn[nH]n5)cc34)cc2)cc1	82%
O=C(NOC[C@H](O)CO)c1ccc(F)c(F)c1Nc1ccc(I)cc1Cl	90%

###

# System: PRKAA1 or PRKAA2 (rat)
# assay: radiometric filter-binding kinase assay
# assayConditions: compound 10.0 µM; accession and sequence are those of the human protein
Use 90% as the dividing line for residual activity, with the line itself on the yes (1) side and lower values as no (0).

smilesString	target	cat
COc1cc(C(=O)N2CCOCC2)c(F)cc1Nc1ncc(C(F)(F)F)c(NC2CC2)n1	PRKAA1 or PRKAA2 (rat)	no (0)
CN1C(=O)[C@@H](Cc2c[nH]c3ccccc23)NC1=S	PRKAA1 or PRKAA2 (rat)	yes (1)
Cc1nc(-c2ccc(OCC(C)C)c(C#N)c2)sc1C(=O)O	PRKAA1 or PRKAA2 (rat)	no (0)
O=C(N[C@@H](COc1ccc2[nH]c(=O)[nH]c2c1)c1ccccc1)c1cccn(Cc2ccc(F)c(F)c2)c1=O	PRKAA1 or PRKAA2 (rat)	yes (1)
